biological target: CCR9 (Homo sapiens (Human), UniProt P51686); test: FLIPR calcium flux assay using MOLT4 cells, TECK stimulation; format: cell-based; details: MOLT4 cells (human T-cell line)
Sequence (P51686 whole entry): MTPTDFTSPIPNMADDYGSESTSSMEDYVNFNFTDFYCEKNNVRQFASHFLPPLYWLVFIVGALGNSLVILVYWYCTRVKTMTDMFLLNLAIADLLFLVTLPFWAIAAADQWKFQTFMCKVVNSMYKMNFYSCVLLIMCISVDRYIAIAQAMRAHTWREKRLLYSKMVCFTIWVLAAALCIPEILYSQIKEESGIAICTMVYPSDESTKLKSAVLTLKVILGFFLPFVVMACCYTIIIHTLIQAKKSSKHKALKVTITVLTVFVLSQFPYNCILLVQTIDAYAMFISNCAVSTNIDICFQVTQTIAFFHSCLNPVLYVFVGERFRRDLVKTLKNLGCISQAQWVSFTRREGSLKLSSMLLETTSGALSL
pKi: −log10 of the molar value.
# if value of pKi reaches 7, tag TRUE; if it stays below, tag FALSE

# count of solved cases: 5
> print(dat)
                                smiles.code  discrete.label
1  COc1nc(C)ccc1CN1C(=O)c2c(Cl)ccc(NS(=O)(=O)c3ccc(C(C)(C)C)cc3)c2C1=O            TRUE
2  Cc1cnccc1N1C(=O)c2c(Cl)ccc(NS(=O)(=O)c3ccc(C(C)(C)C)cc3)c2C1=O            TRUE
3  Cc1ccc(N2C(=O)c3c(Cl)ccc(NS(=O)(=O)c4ccc(C(C)(C)C)cc4)c3C2=O)c[n+]1[O-]            TRUE
4  CC(C)(C)c1ccc(S(=O)(=O)Nc2ccc(Cl)c3c2C(=O)N(c2ccncc2)C3=O)cc1            TRUE
5  CC(C)(C)c1ccc(S(=O)(=O)Nc2ccc(Cl)c3c2C(=O)N(c2cccnc2C(=O)O)C3=O)cc1            TRUE

Asked: Could you tell me if the measured pKi of COC(=O)c1cc(N2C(=O)c3c(Cl)ccc(NS(=O)(=O)c4ccc(C(C)(C)C)cc4)c3C2=O)nn1C reaches 7 or more?
Given back: TRUE

Asked: Evaluate COc1ccc(N2C(=O)c3c(Cl)ccc(NS(=O)(=O)c4ccc(C(C)(C)C)cc4)c3C2=O)[n+]([O-])c1C : pKi at minimum 7?
Given back: TRUE

Asked: Tell me whether pKi is at least 7 here: O=C1c2c(Cl)ccc(NS(=O)(=O)c3ccc(OC(F)F)cc3)c2C(=O)N1c1cn[nH]c1
Given back: FALSE

Asked: Say whether N#Cc1cccc(CN2C(=O)c3c(Cl)ccc(NS(=O)(=O)c4ccc(Cl)c(C(F)(F)F)c4)c3C2=O)c1 shows pKi of 7 or more.
Given back: FALSE

Asked: Is it the case that COc1cncc(N2C(=O)c3c(Cl)ccc(NS(=O)(=O)c4ccc(Cl)c(C(F)(F)F)c4)c3C2=O)c1 has pKi reaching or exceeding 7?
Given back: FALSE

Asked: Please indicate if the recorded pKi for Cc1ccnc(N2C(=O)c3c(Cl)ccc(NS(=O)(=O)c4ccc(C(C)(C)C)cc4)c3C2=O)c1 meets or exceeds 7.
Given back: TRUE

====

Catalogue of pKi values
target: CCR9 (Homo sapiens (Human)); test: FLIPR calcium flux assay using hCCR9 over expressed cells (Chem1-hCCR9), TECK stimulation; format: cell-based; conditions: Chem1-hCCR9 overexpressing cells
Please note pKi is a logarithmic value: minus log10 of concentration in mol/L. Answer with that number alone.

Below are worked cases with known answers.
> print(dat)
                                smiles.code                target.entity  result.type  numeric.result
1  Cn1ccc(CN2C(=O)c3c(Cl)ccc(NS(=O)(=O)c4ccc(C(C)(C)C)cc4)c3C2=O)n1  CCR9 (Homo sapiens (Human))          pKi            7.68
2  Cc1ccc(N2C(=O)c3c(Cl)ccc(NS(=O)(=O)c4ccc(C(C)(C)C)cc4)c3C2=O)nn1  CCR9 (Homo sapiens (Human))          pKi            7.49
3  Cc1cccc(CN2C(=O)c3c(Cl)ccc(NS(=O)(=O)c4ccc(C(C)(C)C)cc4)c3C2=O)n1  CCR9 (Homo sapiens (Human))          pKi            7.17
4  Cc1cc[n+]([O-])cc1N1C(=O)c2c(Cl)ccc(NS(=O)(=O)c3ccc(C(C)(C)C)cc3)c2C1=O  CCR9 (Homo sapiens (Human))          pKi            7.05
5  CCc1c(OC)c[n+]([O-])cc1N1C(=O)c2c(Cl)ccc(NS(=O)(=O)c3ccc(C(C)(C)C)cc3)c2C1=O  CCR9 (Homo sapiens (Human))          pKi            7.60
6  CC(C)(C)c1ccc(S(=O)(=O)Nc2ccc(Cl)c3c2C(=O)N(c2cccnc2)C3=O)cc1  CCR9 (Homo sapiens (Human))          pKi            7.38
7  CC(C)(C)c1ccc(S(=O)(=O)Nc2ccc(Cl)c3c2C(=O)N(Cc2ccc[n+]([O-])c2)C3=O)cc1  CCR9 (Homo sapiens (Human))          pKi            7.13

Asked: Tell me its pKi given Cc1ccc(N2C(=O)c3c(Cl)ccc(NS(=O)(=O)c4ccc(C(C)(C)C)cc4)c3C2=O)c(C)n1 as the entry.
Given back: 8.22

====

target: CCR9 (Homo sapiens (Human), UniProt P51686); assay: FLIPR calcium flux assay using MOLT4 cells, TECK stimulation; type: cell-based; details: MOLT4 cells (human T-cell line)
Result type: Ki (nM)
Record the value in nM, omitting the unit from your answer.

> print(dat)
                                   compound  numeric.result
1  CC(C)(C)c1ccc(S(=O)(=O)Nc2ccc(Cl)c3c2C(=O)N(C(C)(C)c2cccnc2)C3=O)cc1 [Compound 107]             318
2  COc1ccc(CN2C(=O)c3c(Cl)ccc(NS(=O)(=O)c4ccc(C(C)(C)C)cc4)c3C2=O)cn1 [Compound 235]             123

Would you kindly look at the next entry?
Asked: Annotate the compound Cc1nccnc1N1C(=O)c2c(Cl)ccc(NS(=O)(=O)c3ccc(C(C)(C)C)cc3)c2C1=O [Compound 270] with its measured Ki.
Given back: 23

====

molecular target: CCR9 (Homo sapiens (Human), UniProt P51686); test: FLIPR calcium flux assay using hCCR9 over expressed cells (Chem1-hCCR9), TECK stimulation; assay type: cell-based; conditions: Chem1-hCCR9 overexpressing cells
Result type: Ki (nM)
Report only the number, with the unit nM understood.

Answered examples (4):
> print(dat)
                                   compound  result.type  numeric.result
1  CC(Cc1cccnc1)N1C(=O)c2c(Cl)ccc(NS(=O)(=O)c3ccc(C(C)(C)C)cc3)c2C1=O (centres unmarked) [Compound 196]           Ki             103
2  O=C1c2c(Cl)ccc(NS(=O)(=O)c3ccc(C(F)(F)F)cc3)c2C(=O)N1c1cccnc1 [Compound 47]           Ki             309
3  Cc1ccc(N2C(=O)c3c(Cl)ccc(NS(=O)(=O)c4ccc(C(C)(C)C)cc4)c3C2=O)cn1 [Compound 182]           Ki              58
4  COc1cc(CN2C(=O)c3c(Cl)ccc(NS(=O)(=O)c4ccc(C(C)(C)C)cc4)c3C2=O)c[n+]([O-])c1 [Compound 231]           Ki              89

Moving on to another compound below.
Asked: Identify Ki associated with the compound CC(C)(C)c1ccc(S(=O)(=O)Nc2ccc(Cl)c3c2C(=O)N(c2ccsc2C#N)C3=O)cc1 [Compound 232]
Given back: 3

====

target: CCR9 (Homo sapiens (Human)); assay: FLIPR calcium flux assay using hCCR9 over expressed cells (Chem1-hCCR9), TECK stimulation; assay type: cell-based; conditions: Chem1-hCCR9 overexpressing cells
Result type: pKi
Worth noting: pKi values are minus log10 of concentrations stated in mol/L.

> print(dat)
                                smiles.code  result.type  numeric.result
1  Cc1cncc(N2C(=O)c3c(Cl)ccc(NS(=O)(=O)c4ccc(C(C)(C)C)cc4)c3C2=O)n1          pKi            7.38
2  CC(C)(C)c1ccc(S(=O)(=O)Nc2ccc(Cl)c3c2C(=O)N(c2cc(F)ccn2)C3=O)cc1          pKi            7.04
3  Cc1cc(N2C(=O)c3c(Cl)ccc(NS(=O)(=O)c4ccc(C(C)(C)C)cc4)c3C2=O)c(C)[n+]([O-])c1          pKi            7.23
4  CCOc1ccncc1N1C(=O)c2c(Cl)ccc(NS(=O)(=O)c3ccc(C(C)(C)C)cc3)c2C1=O          pKi            7.46
5  COc1ccncc1N1C(=O)c2c(Cl)ccc(NS(=O)(=O)c3ccc(C(C)(C)C)cc3)c2C1=O          pKi            7.46
6  Cn1cncc1N1C(=O)c2c(Cl)ccc(NS(=O)(=O)c3ccc(C(C)(C)C)cc3)c2C1=O          pKi            7.92
7  COc1cccc(N2C(=O)c3c(Cl)ccc(NS(=O)(=O)c4ccc(C(C)(C)C)cc4)c3C2=O)c1          pKi            6.86
8  Cc1cncc(N2C(=O)c3c(Cl)ccc(NS(=O)(=O)c4ccc(C(C)(C)C)cc4)c3C2=O)c1          pKi            6.62

Asked: Determine from records and report pKi for CCOC(=O)c1ncccc1N1C(=O)c2c(Cl)ccc(NS(=O)(=O)c3ccc(C(C)(C)C)cc3)c2C1=O
Given back: 7.85

Asked: Give me measured pKi, please, for this compound: CCc1c(OC)cncc1N1C(=O)c2c(Cl)ccc(NS(=O)(=O)c3ccc(C(C)(C)C)cc3)c2C1=O
Given back: 7.68

Asked: Return pKi (reported value) for this compound: CC(C)(C)c1ccc(S(=O)(=O)Nc2ccc(Cl)c3c2C(=O)N(Cc2cccc[n+]2[O-])C3=O)cc1
Given back: 8.00
